# System: NCI-H23 lung
# METHOD DESCRIPTION: NCI tumour cell line growth inhibition, 48 h
OBSERVATION TYPE: TGI

- MOLECULE: "Oc1ccc(Cn2c(-c3ccc(O)cc3)nc3ccccc32)cc1"
  OBSERVATION TYPE: "TGI"
  VALUE MEASURED: "> 100 µM"
- MOLECULE: "CC/C(=C\\c1ccc(Cl)c(Cl)c1)[N+](=O)[O-]"
  OBSERVATION TYPE: "TGI"
  VALUE MEASURED: "5.21 µM"
- MOLECULE: "CC(C)OP(=O)(OC(C)C)C(Nc1cccc(C(F)(F)F)c1)c1ccccc1 (stereo unspecified)"
  OBSERVATION TYPE: "TGI"
  VALUE MEASURED: "> 100 µM"
- MOLECULE: "CC(C)=CCc1cc(C2COc3cc4c(c(O)c3C2=O)C=CC(C)(C)O4)c(O)cc1O (stereo unspecified)"
  OBSERVATION TYPE: "TGI"
  VALUE MEASURED: "32.6 µM"
- MOLECULE: "O=C1NN=CN2C(=O)CCC12 (stereo unspecified)"
  OBSERVATION TYPE: "TGI"
  VALUE MEASURED: "> 100 µM"
- MOLECULE: "COc1ccc(OC)c(/C=N/N=C2\\C(=O)Nc3c(Cl)cc(Cl)cc32)c1"
  OBSERVATION TYPE: "TGI"
  VALUE MEASURED: "> 100 µM"
- MOLECULE: "CC1=NN(c2ccccc2)C(=O)C1N=Nc1ccc(S(N)(=O)=O)cc1 (stereo unspecified)"
  OBSERVATION TYPE: "TGI"
  VALUE MEASURED: "> 100 µM"
- MOLECULE: "Cc1ccccc1NC(=O)CSc1nnc(Cc2ccccc2)o1"
  OBSERVATION TYPE: "TGI"
  VALUE MEASURED: "> 100 µM"
- MOLECULE: "COC(=O)C1C(/C=C/c2ccoc2)ON2CCC[C@@H]12 (stereo partly specified)"
  OBSERVATION TYPE: "TGI"
  VALUE MEASURED: "> 100 µM"
- MOLECULE: "CC(=O)/C(=C(/Br)I)c1ccccc1"
  OBSERVATION TYPE: "TGI"
  VALUE MEASURED: "16.8 µM"
- MOLECULE: "CCOC(=O)Oc1ccc2c(c1)c(=O)c1c(NCCCN(CC)CC)ccc3nnn2c31"
  OBSERVATION TYPE: "TGI"
  VALUE MEASURED: "29.3 µM"
- MOLECULE: "CC(=O)C1C(=O)C(=O)N(c2ccc(Br)cc2)C1=O (stereo unspecified)"
  OBSERVATION TYPE: "TGI"
  VALUE MEASURED: "> 100 µM"
- MOLECULE: "COc1cc2c(Cc3cc(OCc4ccccc4)ccc3N)nccc2c(OC)c1OC"
  OBSERVATION TYPE: "TGI"
  VALUE MEASURED: "> 10 µM"
- MOLECULE: "CC(=O)NC1C(OCc2ccccc2)OC(CO)C(O)C1OCC(=O)N1CCCC1C(=O)NC(CCC(=O)NCCCCCNc1c2ccccc2nc2cccc([N+](=O)[O-])c12)C(N)=O (stereo unspecified)"
  OBSERVATION TYPE: "TGI"
  VALUE MEASURED: "0.904 µM"
- MOLECULE: "COC(=O)C1=NN2c3ccccc3CN([C@@H](C)c3ccccc3)C(=O)[C@H]2[C@@H]1C"
  OBSERVATION TYPE: "TGI"
  VALUE MEASURED: "> 100 µM"
- MOLECULE: "BrC1=CN2C[n+]3cc(Br)c4ccccc4c3N=C2c2ccccc21"
  OBSERVATION TYPE: "TGI"
  VALUE MEASURED: "56.4 µM"
- MOLECULE: "COc1ccc2c(c1)C=C1CSCC3=Cc4cc(OC)ccc4OC13O2"
  OBSERVATION TYPE: "TGI"
  VALUE MEASURED: "> 100 µM"
- MOLECULE: "NCCCCCNOCCCN"
  OBSERVATION TYPE: "TGI"
  VALUE MEASURED: "> 100 µM"
- MOLECULE: "Nc1cc(-c2ccccc2)n(C(=O)Nc2ccc(Oc3ccccc3)cc2)n1"
  OBSERVATION TYPE: "TGI"
  VALUE MEASURED: "> 100 µM"
- MOLECULE: "Cc1ccc(Nc2nc(C)c(C(/C=C/c3ccc4c(c3)OCO4)=N/Nc3ccc([N+](=O)[O-])cc3[N+](=O)[O-])s2)c([N+](=O)[O-])c1"
  OBSERVATION TYPE: "TGI"
  VALUE MEASURED: "> 100 µM"
- MOLECULE: "COC(=O)C1=C(O)C(C(=O)OC)[C@@]2(O)[C@@H](C(=O)OC)CC[C@@H]1[C@@H]2C(=O)OC (stereo partly specified)"
  OBSERVATION TYPE: "TGI"
  VALUE MEASURED: "56.6 µM"

----------
# Test system: KM12 colon
# METHOD DESCRIPTION: NCI tumour cell line growth inhibition, 48 h
OBSERVATION TYPE: TGI (µM)

- MOLECULE: "O=C(O)c1cc(=O)c2cc(C(=O)c3cccs3)c(Cl)c(Cl)c2o1"
  OBSERVATION TYPE: "TGI"
  VALUE UNIT: "µM"
  LIMIT SIGN: ">"
  VALUE MEASURED: 100
- MOLECULE: "O=C1c2ccccc2C(=O)c2c(O)c(NCCNCCO)cc(O)c21"
  OBSERVATION TYPE: "TGI"
  VALUE UNIT: "µM"
  LIMIT SIGN: "="
  VALUE MEASURED: 15.7
- MOLECULE: "CC(=O)C1C(=O)C(=O)N(c2ccc(Br)cc2)C1=O (configuration not stated)"
  OBSERVATION TYPE: "TGI"
  VALUE UNIT: "µM"
  LIMIT SIGN: ">"
  VALUE MEASURED: 100
- MOLECULE: "CC1CC(=O)c2c(ccc3c2C(=O)c2cccc(O)c2C3=O)C1 (configuration not stated)"
  OBSERVATION TYPE: "TGI"
  VALUE UNIT: "µM"
  LIMIT SIGN: "="
  VALUE MEASURED: 26.7
- MOLECULE: "CN(C)CC1=Nc2cccc3cccc(c23)N1"
  OBSERVATION TYPE: "TGI"
  VALUE UNIT: "µM"
  LIMIT SIGN: "="
  VALUE MEASURED: 59.3
- MOLECULE: "COC(=O)CCC1(O)C=CC(=O)C=C1"
  OBSERVATION TYPE: "TGI"
  VALUE UNIT: "µM"
  LIMIT SIGN: ">"
  VALUE MEASURED: 100
- MOLECULE: "O=C1OC(OC/C(Br)=C(/Br)COC2OC(=O)C(Cl)=C2Cl)C(Cl)=C1Cl (configuration not stated)"
  OBSERVATION TYPE: "TGI"
  VALUE UNIT: "µM"
  LIMIT SIGN: "="
  VALUE MEASURED: 21.8
- MOLECULE: "BrC1=CN2C[n+]3cc(Br)c4ccccc4c3N=C2c2ccccc21"
  OBSERVATION TYPE: "TGI"
  VALUE UNIT: "µM"
  LIMIT SIGN: "="
  VALUE MEASURED: 15.9
- MOLECULE: "NS(=O)(=O)c1ccc(N2N=C(c3cccs3)CC2c2ccccc2O)cc1 (configuration not stated)"
  OBSERVATION TYPE: "TGI"
  VALUE UNIT: "µM"
  LIMIT SIGN: "="
  VALUE MEASURED: 1.94
- MOLECULE: "CC(=O)Nc1nnc(S(=O)(=O)NC(=S)Nc2ccc(Cl)cc2)s1"
  OBSERVATION TYPE: "TGI"
  VALUE UNIT: "µM"
  LIMIT SIGN: ">"
  VALUE MEASURED: 100
- MOLECULE: "NS(=O)(=O)c1ccc(NC(=O)c2cccc3c(Nc4ccc(S(N)(=O)=O)cc4)c4ccccc4nc23)cc1"
  OBSERVATION TYPE: "TGI"
  VALUE UNIT: "µM"
  LIMIT SIGN: "="
  VALUE MEASURED: 25.6
- MOLECULE: "CNc1ncc2cc(Oc3ccc(F)cc3F)c(=O)n(C)c2n1"
  OBSERVATION TYPE: "TGI"
  VALUE UNIT: "µM"
  LIMIT SIGN: ">"
  VALUE MEASURED: 25
- MOLECULE: "O=[N+]([O-])c1ccc2[nH]c(O)c(N=NC(=S)Nc3ccccc3)c2c1"
  OBSERVATION TYPE: "TGI"
  VALUE UNIT: "µM"
  LIMIT SIGN: "="
  VALUE MEASURED: 27
- MOLECULE: "COc1ccc(C2C(Cl)C(=O)N2NC(=O)c2ccccc2O)cc1OC (configuration not stated)"
  OBSERVATION TYPE: "TGI"
  VALUE UNIT: "µM"
  LIMIT SIGN: ">"
  VALUE MEASURED: 100
- MOLECULE: "O=C1c2c(ccc3c2CCCC3)CC1Cc1ccc2c(c1)CCCC2 (configuration not stated)"
  OBSERVATION TYPE: "TGI"
  VALUE UNIT: "µM"
  LIMIT SIGN: ">"
  VALUE MEASURED: 100
- MOLECULE: "CCSC(=O)C1(C)OC2CCCCC2C1=O (configuration not stated)"
  OBSERVATION TYPE: "TGI"
  VALUE UNIT: "µM"
  LIMIT SIGN: ">"
  VALUE MEASURED: 100
- MOLECULE: "Nc1nc(NCCOCP(=O)(O)O)c(N)c(=O)[nH]1"
  OBSERVATION TYPE: "TGI"
  VALUE UNIT: "µM"
  LIMIT SIGN: ">"
  VALUE MEASURED: 100
- MOLECULE: "O=C(O)CN=c1c2ccccc2n(O)c2ccccc12"
  OBSERVATION TYPE: "TGI"
  VALUE UNIT: "µM"
  LIMIT SIGN: ">"
  VALUE MEASURED: 100
- MOLECULE: "O=C(O)CO/N=C1/C(c2c(O)[nH]c3ccccc23)=Nc2ccccc21"
  OBSERVATION TYPE: "TGI"
  VALUE UNIT: "µM"
  LIMIT SIGN: ">"
  VALUE MEASURED: 100
- MOLECULE: "CC1=NN(c2ccccc2)C(=O)C1N=Nc1ccc(S(N)(=O)=O)cc1 (configuration not stated)"
  OBSERVATION TYPE: "TGI"
  VALUE UNIT: "µM"
  LIMIT SIGN: ">"
  VALUE MEASURED: 100
- MOLECULE: "Cc1c(C(N)=O)sc2c1c(=O)n(Cc1ccccc1)c1nnc(S(=O)(=O)CC(=O)Nc3ccc(Cl)cc3)n21"
  OBSERVATION TYPE: "TGI"
  VALUE UNIT: "µM"
  LIMIT SIGN: "="
  VALUE MEASURED: 16.2
- MOLECULE: "C=CCC1C2CCC(O[Si](C(C)C)(C(C)C)C(C)C)(C(C(=O)OC)C2)C1O (configuration not stated)"
  OBSERVATION TYPE: "TGI"
  VALUE UNIT: "µM"
  LIMIT SIGN: ">"
  VALUE MEASURED: 100

# credit: PubChem BioAssay (NCI)
